B1: library; a variant is named by its letters at N, in order (parent)
chain: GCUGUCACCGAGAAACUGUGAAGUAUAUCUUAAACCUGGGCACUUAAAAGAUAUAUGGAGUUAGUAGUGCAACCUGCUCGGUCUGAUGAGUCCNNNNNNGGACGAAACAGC

Variants of: B1
assay.overview: normalized RNA/DNA level without ligand (relative to sTRSVctl = 100) (log10 (% of sTRSVctl)); HEK293T; ligand: cyclic di-GMP (c-di-GMP-II aptamer); higher = less ribozyme self-cleavage, higher mRNA level
measurement.setup: reporter: mCherry (pCS4076), ligand present: no
Exercise: for every item that follows, state its recorded normalized RNA/DNA level without ligand (log10).
One number for each entry.

Consider the following items and state reported normalized RNA/DNA level without ligand (log10) for each.
1. AUGUAU
2. CUUUAG
3. GAUAUG

stdout:
1: 1.61; 2: 1.73; 3: 1.52
